- protocolSummary: AUC in CD-1 IGS mouse at 1 mg/kg, iv by LC-MS/MS analysis
- Format: ADME, organism-based
- Parameters: dose 1 mg/kg, route iv
- conditionSet: in vivo

{"inputSmiles": "Cc1ccc(F)c2cc(C(=O)N[C@@H]3CCC[C@H](N4CCN5C(=O)CC[C@H]5C4)C3)[nH]c12", "AUC": "500 ng·h/mL"}

----------
- protocolSummary: Half life in Sprague-Dawley rat at 1 mg/kg, iv by LC-MS/MS analysis
- Type: ADME, organism-based
- conditionSet: in vivo

{"inputSmiles": "Cc1ccc(F)c2cc(C(=O)N[C@@H]3CCC[C@H](N4CCN5C(=O)CC[C@H]5C4)C3)[nH]c12", "half-life [h]": 4.1}

----------
compounds and their reported half-life
- protocolSummary: Half life in CD-1 IGS mouse at 50 mg/kg, po by LC-MS/MS analysis
- Type: ADME, organism-based
- conditionSet: in vivo
quantity: half-life (min)

{"compound": "CC(=O)N1CCN([C@H]2CCC[C@@H](NC(=O)c3cc4c(F)ccc(C)c4[nH]3)C2)CC1 [EZM-0414]", "valueObserved": 108}
{"compound": "Cc1ccc(F)c2cc(C(=O)N[C@@H]3CCC[C@H](N4CCN5C(=O)CC[C@H]5C4)C3)[nH]c12", "valueObserved": 48}
{"compound": "CC(=O)N1CCN(c2cccc(NC(=O)c3cc4c(F)ccc(C)c4[nH]3)c2)CC1", "valueObserved": 48}

----------
- protocolSummary: cells
- conditionSet: Homo sapiens, KMS-34, 336 h
- Description: Antiproliferative activity against human KMS-34 cells assessed as reduction in cell viability incubated for 14 days by CellTiter-glo luminescence assay
pEC50: −log10 of the molar value.
compounds and their reported pEC50
quantity: pEC50

{"inputSmiles": "CC(=O)N1CCN(c2cc(F)cc(NC(=O)c3cc4c(F)ccc(C)c4[nH]3)c2)CC1", "valueObserved": 7.22}
{"inputSmiles": "CC(=O)N1CCN(c2cccc(NC(=O)c3cc4c(F)ccc(C)c4[nH]3)c2)CC1", "valueObserved": 6.61}

----------
- protocolSummary: Volume of distribution at steady state in CD-1 IGS mouse at 2 mg/kg, iv by LC-MS/MS analysis
- Format: ADME, organism-based
- conditionSet: in vivo, read-out: Vdss

{"inputSmiles": "CC(=O)N1CCN([C@H]2CCC[C@@H](NC(=O)c3cc4c(F)ccc(C)c4[nH]3)C2)CC1", "quantityUnit": "L/kg", "Vd": 4.7}
{"inputSmiles": "CC(=O)N1CCN(c2cccc(NC(=O)c3cc4c(F)ccc(C)c4[nH]3)c2)CC1", "quantityUnit": "L/kg", "Vd": 1.1}

----------
- protocolSummary: Half life in CD-1 IGS mouse at 1 mg/kg, iv by LC-MS/MS analysis
- Assay type: ADME, organism-based
- conditionSet: in vivo
quantity: half-life (h)

{"inputSmiles": "Cc1ccc(F)c2cc(C(=O)N[C@@H]3CCC[C@H](N4CCN5C(=O)CC[C@H]5C4)C3)[nH]c12", "valueObserved": 1.6}

----------
compounds and their reported half-life
- protocolSummary: Half life in CD-1 IGS mouse at 2 mg/kg, iv by LC-MS/MS analysis
- Assay type: ADME, organism-based
- conditionSet: in vivo
quantity: half-life (h)

{"compound": "CC(=O)N1CCN(c2cccc(NC(=O)c3cc4c(F)ccc(C)c4[nH]3)c2)CC1", "valueObserved": 0.4}
{"compound": "CC(=O)N1CCN([C@H]2CCC[C@@H](NC(=O)c3cc4c(F)ccc(C)c4[nH]3)C2)CC1 [EZM-0414]", "valueObserved": 1.8}
